meta.source: patent US12509431B2

test system: isoflurane-anesthetized SD rats; assay: In vivo echocardiography of systolic cardiac performance (FS, SWT, HR, LV volumes) after a single oral dose; details: Rattus norvegicus, EDV (LV volume, Teichholz formula), single dose 10 mg/kg PO, ~2 hrs post-dosing, vs. vehicle, read-out: EDV % vs. VEH
Recorded change in vivo at 10 mg/kg for the following compounds
test.readout: change in vivo at 10 mg/kg (%)

- compound: "O=C(CN1Cc2c(ccc(F)c2F)NC1=O)N[C@@H]1COc2cc(F)cc(F)c21"
  test.readout: "change in vivo at 10 mg/kg"
  quantitative.readout: 10
- compound: "C[C@H](NC(=O)CN1Cc2cc(F)ccc2NC1=O)c1ncc(C#N)cc1F"
  test.readout: "change in vivo at 10 mg/kg"
  quantitative.readout: 11
- compound: "CC(NC(=O)CN1Cc2cc(F)ccc2NC1=O)c1ccc(C#N)cc1F (single isomer, unassigned)"
  test.readout: "change in vivo at 10 mg/kg"
  quantitative.readout: 29
